# target_entity: human zymogen NSP4 (hZ) (human) (UniProt Q6UWY2)
# Sequence (Q6UWY2 34-283, form in doubt): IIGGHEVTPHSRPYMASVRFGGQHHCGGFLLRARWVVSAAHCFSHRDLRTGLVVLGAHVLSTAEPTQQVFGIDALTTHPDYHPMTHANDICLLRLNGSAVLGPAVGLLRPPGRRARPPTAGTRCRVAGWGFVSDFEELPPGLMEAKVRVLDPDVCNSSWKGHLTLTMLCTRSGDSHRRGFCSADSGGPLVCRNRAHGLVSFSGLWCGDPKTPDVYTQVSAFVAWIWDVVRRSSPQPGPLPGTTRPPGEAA
# experimental_protocol: competition phage ELISA (phage IC50); soluble hZ-NSP4 against plate-coated NSP4
readout_kind: IC50 (nM)
Write it as a number; the unit nM goes unstated.

Take a look at these entries with their results.
binder	measured_number
anti-NSP4 antibody 2-2 (antibody, human IgG1, V domains shown, also called clone 2-2) VH: EVQLVESGGGLVQPGGSLRLSCAASGFTFSSTAISWVRQAPGKGLEWVGEIYPSDGYTDYADSVKGRFTISADTSKNTAYLQMNSLRAEDTAVYYCARVKWAVSSLGVMDYWGQGTLVTVSS VL: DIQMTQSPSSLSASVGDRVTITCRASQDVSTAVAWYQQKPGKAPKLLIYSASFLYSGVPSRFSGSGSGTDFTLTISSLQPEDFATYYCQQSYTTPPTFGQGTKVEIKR	10.4
anti-NSP4 antibody 2-3 (antibody, human IgG1, V domains shown, also called clone 2-3) VH: EVQLVESGGGLVQPGGSLRLSCAASGFTFTDSDISWVRQAPGKGLEWVAWISPSDGATDYADSVKGRFTISADTSKNTAYLQMNSLRAEDTAVYYCAHEASDDDYAIDYWGQGTLVTVSS VL: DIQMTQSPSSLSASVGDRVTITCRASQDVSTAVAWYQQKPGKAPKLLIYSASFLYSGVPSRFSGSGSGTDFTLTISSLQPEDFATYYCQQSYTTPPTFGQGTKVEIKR	3.07

State its IC50 for this binder: anti-NSP4 antibody 1-3 (antibody, human IgG1, V domains shown) VH: EVQLVESGGGLVQPGGSLRLSCAASGFTFSDNWISWVRQAPGKGLEWVGYIYPASGYTDYADSVKGRFTISADTSKNTAYLQMNSLRAEDTAVYYCASDSPHAYWYAMDYWGQGTLVTVSS VL: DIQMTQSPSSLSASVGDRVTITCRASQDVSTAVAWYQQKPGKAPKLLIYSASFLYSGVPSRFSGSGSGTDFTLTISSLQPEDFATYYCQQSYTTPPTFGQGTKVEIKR 52

Using the record for anti-NSP4 antibody 1-1 (antibody, human IgG1, V domains shown) VH: EVQLVESGGGLVQPGGSLRLSCAASGFTFSGSWISWVRQAPGKGLEWVGTISPYNGSTYYADSVKGRFTISADTSKNTAYLQMNSLRAEDTAVYYCARVLRPKVYASVMDYWGQGTLVTVSS VL: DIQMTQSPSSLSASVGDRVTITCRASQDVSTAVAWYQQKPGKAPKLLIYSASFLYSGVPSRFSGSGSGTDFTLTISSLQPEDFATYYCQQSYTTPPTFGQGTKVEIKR , state its measured IC50. 155

Identify measured IC50 corresponding to anti-NSP4 antibody 1-5 (antibody, human IgG1, V domains shown) VH: EVQLVESGGGLVQPGGSLRLSCAASGFTFTNNSISWVRQAPGKGLEWVGAISPNNGSTYYADSVKGRFTISADTSKNTAYLQMNSLRAEDTAVYYCARNAWHYSWVGVMDYWGQGTLVTVSS VL: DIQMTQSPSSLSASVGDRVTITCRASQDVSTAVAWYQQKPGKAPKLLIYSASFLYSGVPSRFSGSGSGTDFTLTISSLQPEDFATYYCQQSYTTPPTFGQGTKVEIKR 114
